ASSAY SYSTEM: T1, CRBN, Q96SW2;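 further: pooled lentiviral library of zinc finger degron-EGFP fusions in mCherry-positive Jurkat cells, FACS-sorted after compound exposure, with degron abundance counted by next-generation sequencing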
T1 chain: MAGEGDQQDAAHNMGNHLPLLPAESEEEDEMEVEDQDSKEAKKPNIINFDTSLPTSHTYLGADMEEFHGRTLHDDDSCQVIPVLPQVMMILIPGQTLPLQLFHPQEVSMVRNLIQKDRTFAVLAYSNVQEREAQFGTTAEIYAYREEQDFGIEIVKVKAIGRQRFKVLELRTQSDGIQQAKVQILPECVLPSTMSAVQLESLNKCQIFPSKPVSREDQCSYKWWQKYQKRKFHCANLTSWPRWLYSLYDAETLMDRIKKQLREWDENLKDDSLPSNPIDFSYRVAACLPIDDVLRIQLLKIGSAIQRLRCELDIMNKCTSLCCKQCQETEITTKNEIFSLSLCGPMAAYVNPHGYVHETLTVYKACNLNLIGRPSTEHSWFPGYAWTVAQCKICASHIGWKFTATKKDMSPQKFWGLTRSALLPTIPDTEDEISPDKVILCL
PROCEDURE DETAILS: log2 fold change of degron read counts, EGFP-low vs EGFP+ sorted cells (limma voom), compound-induced degradation; higher = more compound-induced degradation of the degron-EGFP fusion; degrons are variants of IKZF1/3 zinc finger 2; compound dose not given here
SETTINGS: Jurkat; 18 h; compound: compound 33 (diphenyl IMiD analogue)
In all, about 8,300 sequences were measured (“log2 fold change of degron read counts, EGFP-low vs EGFP+ sorted cells (limma voom), compound-induced degradation”: median about -1.1, highest 2% from about 3.2 on). Shown is part of a subset that was picked to be rich in the highest values.
REPORTED ENDPOINT: log2 fold change of degron read counts
Simply state the number, no unit and no words.

Sample records with log2 fold change of degron read counts:
{"columns": ["CONSTRUCT SEQUENCE", "RESULT"],
 "data": [
  ["FWCPQCGARFTQKGNLLRHIKL [46F_47W_49P_50Q_52G_53A_54R_55F_67L_, Q9UKT9]", 0.0765],
  ["LQCPICGFACTQKGNLLRHIKL [46L_47Q_49P_50I_52G_53F_54A_55C_67L_, Q9UKT9]", 2.47],
  ["FLCSVCGHQFTQKGNLLRHIKL [46F_47L_49S_50V_52G_53H_54Q_55F_67L_, Q9UKT9]", -2.54]
]}

Which log2 fold change of degron read counts is reported for this sequence? FSCEICGHVFTQKGNLLRHIKL [46F_47S_49E_50I_52G_53H_54V_55F_67L_, Q9UKT9]
-2.63

How about FMCDQCGAMFTQKGNLLRHIKL [46F_47M_49D_50Q_52G_53A_54M_55F_67L_, Q9UKT9] ?
-1.88

How about FTCEICGRSFTQKGNLLRHIKL [46F_47T_49E_50I_52G_53R_54S_55F_67L_, Q9UKT9] ?
-1.23

How about FKCNICGAHFTQKGNLLRHIKL [46F_47K_49N_50I_52G_53A_54H_55F_67L_, Q9UKT9] ?
-2.99

How about LGCPICGFACTQKGNLLRHIKL [46L_47G_49P_50I_52G_53F_54A_55C_67L_, Q9UKT9] ?
1.7

How about LFCEICGFDCTQKGNLLRHIKL [46L_47F_49E_50I_52G_53F_54D_55C_67L_, Q9UKT9] ?
-2.23

These entries and their values trace back to the supplement of paper PMC12645437.
